# target under test: human IL-6 (human, UniProt P05231 30-212)
# procedure details: cell-based or functional assay
Reported IC50, growth of IL-6-dependent 7TD1 cells with 75 pg/ml human IL-6 values are given for each entry in this list.
measurement kind: IC50, growth of IL-6-dependent 7TD1 cells with 75 pg/ml human IL-6

binder	val
133H2 (antibody, V domains shown) VH: EVQLQESGPGLVKPSQTLSLTCTVSGGSITTRYYAWSWIRQPPGKGLEWIGVIDYDGDTYYSPSLKSRTTISWDTSKNQFSLKLSSVTPADTAVYYCARDPDVVTGFHYDYWGQGTTVTVSS VL: QSALTQPPLVSGSPGQTVTISCAGANNDIGTYAYVSWYQQPPGTAPKLMIYKVTTRASGIPDRFSGSKSGNTASLTISGLQAEDEADYYCASYRNFNNAVFGSGTKLTVL	< 1 pM
61H7 antibody (antibody, V domains shown) VH: EVQLVESGGGLVQPGGSLRLSCAASGFTFSSYRMYWVRQPPGKGLEWVSAISAGGGSTYYGDSVKGRFTISRDNAKNTVYLQMNSLKPEDTAVYYCANRAGWGMGDYWGQGTQVTVSS VL: QTVVTQEPSLSVSPGGTVTLTCGLSSGSVTASNYPGWFQQTPGQAPRALIYSTNDRHSGVPSRFSGSISGNKAALTITGAQPEDEADYYCALDIGDITEFGGGTHLTVLG	< 1 pM
129D3 antibody (antibody, V domains shown) VH: EVQLQESGPGLVKPSQTLSLTCTVSGGSITSRYYAWSWIRQPPGKGLEWIGVIDYDGDTYYSPSLKSRVSISWDTSKNQFSLKLSSVTPADTAVYYCARDPDVVTGFHYDYWGQGTMVTVSS VL: QSALTQPPSVSGTPGQSVTISCAGANNDIGTYAYVSWYQQLPGTAPKLMIYKVTTRASGIPDRFSGSKSGNTASLTISGLQAEDEADYYCASYRNFNNAVFGTGTKLTVL	< 1 pM
111B1 (antibody, V domains shown) VH: EVQLLESGGGLVQPGGSLRLSCAASGFTFSSYAMYWVRQPPGKGLEWVSRISAGGGSTYYGDSVKGRFTISRDNSKNTLYLQMNSLRAEDTAVYYCANRAGWGMGDYWGQGTLVTVSS VL: QTVVTQEPSFSVSPGGTVTLTCGLSSGSVTASNYPGWFQQTPGQAPRALIYSTNDRHSGVPDRFSGSILGNKAALTITGAQAEDEADYYCALDIGDITEFGGGTQLTVL	< 1 pM
104C1 (antibody, V domains shown) VH: EVQLLESGGGLVQPGGSLRLSCAASGFTFSSYAMYWVRQAPGKGLEWVSRISAGGGSTYYGDSVKGRFTISRDNAKNTVYLQMNSLKPEDTAVYYCANRAGWGMGDYWGQGTQVTVSS VL: QTVVTQEPSFSVSPGGTVTLTCGLSSGSVTASNYPGWYQQTPGQAPRALIYSTNDRHSGVPDRFSGSISGNKAALTITGAQADDESDYYCALDIGDITEFGGGTKLTVLG	< 1 pM

The values you see were collected from patent US20220073604A1.
